# System: FXR:RXRa (NR concentration 270 nM, RXRa partner concentration 90 nM)
# method description: PBM binding z-score (relative to random genomic background probes); higher = stronger binding; sequences stand for … in GC…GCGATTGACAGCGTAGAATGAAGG
Note to self: values exactly at 2 are Condition met. So PBM binding z-score at or above 2 is Condition met, below is Condition not met.

Worked set:
{"seq string": "ATCGAATGGTCGACGAGGTGAGTATACACCGTTT", "discrete label": "Condition not met"}
{"seq string": "ATATGTAGGTTACATCCGGGGCATTCAGGCTATG", "discrete label": "Condition not met"}
{"seq string": "ATTAGTTGGTCAGCTGAGGTCACACACAATTCGG", "discrete label": "Condition met"}
{"seq string": "CGTCCAAGTTCAAAGGTCAGTGAAGAGATGACGG", "discrete label": "Condition met"}
{"seq string": "CCTACTGGGCCAGCAGGTCATTGATATCAACGTT", "discrete label": "Condition not met"}

Evaluate `CCTCGGAGGACAGGAGGTCAGAGCTGTCCGCTTT` : PBM binding z-score at minimum 2?
Condition not met

// next record `AGAATGAGGTTATACGTAGATCAGGTAAGAAAGT`
Condition met

----------
# Test system: THRa:RXRa (NR concentration 90 nM, RXRa partner concentration 90 nM)
# method description: PBM binding z-score (relative to random genomic background probes); higher = stronger binding; sequences stand for … in GC…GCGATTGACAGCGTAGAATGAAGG
measured metric: PBM binding z-score

{"seq string": "TCGAGTAGCTTAGGGGCATTCAGAATGGCGTCGA", "PBM binding z-score": 0.657}
{"seq string": "ACTATTAGTGGACTTAGGGCAACCGATACGACGC", "PBM binding z-score": 1.17}
{"seq string": "CCGACTGGGGCAAAGGTTAACATACTCAGTACGA", "PBM binding z-score": 2.19}
{"seq string": "TAGCCTAGGTCATTGGGCCAGTTTAGTACGCATC", "PBM binding z-score": 3.03}
{"seq string": "CAGCCTAGGGCAGGGCCAGTATAGGAGGAACGTT", "PBM binding z-score": -0.901}
{"seq string": "CCAGACAGGTGAGAAGGCAACTCAGCCTCGATTA", "PBM binding z-score": -0.202}
{"seq string": "TCTTGTAGATCAAAGGTTAAGAAAGCCGAAGCCT", "PBM binding z-score": 1.27}
{"seq string": "CCTAGCAGGCCAATCTGGGTCACTCCAGGCTTGA", "PBM binding z-score": 3.49}
{"seq string": "AGTTACGGGTCAACGAGGTTATAGCACGCGTATA", "PBM binding z-score": 3.97}
{"seq string": "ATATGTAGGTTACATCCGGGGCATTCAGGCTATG", "PBM binding z-score": 1.83}

Please look at the items below and tell me PBM binding z-score for each one, in order.
1. GAAACGAGGGCATTCGAGTTGATAGCATGGCGAT
2. CCTACTGGGCCATCAGTTCATTGATATCAACGTT

1. 3.47
2. 0.411

----------
# Test system: PPARg:RXRa (NR concentration 180 nM, RXRa partner concentration 90 nM)
# method description: PBM binding z-score (relative to random genomic background probes); higher = stronger binding; sequences stand for … in GC…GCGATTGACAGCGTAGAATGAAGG
Note to self: values exactly at 1 are Fulfilled. So PBM binding z-score at or above 1 is Fulfilled, below is Not fulfilled.

Worked set:
{"seq string": "TCAGACAAGTGAAGGTAACTCAGGTACGCAGTCG", "discrete label": "Not fulfilled"}
{"seq string": "GATACAGGGCCAGCTAGAGGCCAGAGTATGGAAA", "discrete label": "Not fulfilled"}

Alright, here's another sequence for you.
Evaluate `GTACCAAGGTGAATAGATCGTTGATGAGTAGGCG` : PBM binding z-score at minimum 1?
Not fulfilled
